- MEASURED TARGET: T1, FtsZ core (residues 1-315) D210A/D213A (Bacillus subtilis, UniProt P17865 1-315, D210A | D213A)
- T1 construct: FtsZ, Bacillus subtilis, globular core, residues 1-315, D210A/D213A; see S1 Appendix; also called acidic patch mutant core; source: E. coli BL21 Star (DE3), purified
- T1 sequence (looked up): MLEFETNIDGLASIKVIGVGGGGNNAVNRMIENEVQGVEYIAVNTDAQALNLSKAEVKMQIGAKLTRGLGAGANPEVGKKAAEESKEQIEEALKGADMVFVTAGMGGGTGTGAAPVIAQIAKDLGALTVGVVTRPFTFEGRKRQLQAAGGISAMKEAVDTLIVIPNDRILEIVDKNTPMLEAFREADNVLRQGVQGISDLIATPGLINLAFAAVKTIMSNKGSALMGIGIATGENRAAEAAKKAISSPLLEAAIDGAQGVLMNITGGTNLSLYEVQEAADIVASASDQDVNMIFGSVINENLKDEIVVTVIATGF
- ASSAY NOTES: ITC; full-length FtsZ or FtsZ core (5 µM) in the cell, FtsZ tail or MinCN (50 µM) in the syringe; TKEG buffer (50 mM Tris pH 8, 50 mM KCl, 1 mM EDTA, 5% glycerol), 25°C; one-site model
- EXPERIMENTAL CONTEXT: both partners purified
RESULT TYPE: pKd
# pKd = -log10(concentration in molar units)

Entry FtsZ tail (residues 316-382) (domain or fragment, Bacillus subtilis, UniProt P17865 316-382, looked up, FtsZ, Bacillus subtilis, C-terminal tail, residues 316-382 (67 aa); Cloned in pGEX-6P-3 with a PreScission site; also called C-terminal tail; CTT; source: E. coli BL21 Star (DE3), purified; 15N-labelled in M9 minimal medium for NMR) IEQEKDVTKPQRPSLNQSIKTHNQSVPKREPKREEPQQQNTVSRHTSQPADDTLDIPTFLRNRNKRG , pKd reported as 6.30
